src = ChEMBL document CHEMBL1201862

System: RPMI-8226
Assay: NCI tumour cell line growth inhibition, 48 h
Activity calls are given as the source filed them. No stated cut-off is given here; in the data, active = GI50 up to about 1.1 µM and inactive = higher.
Classes used: active, inactive

[[record]]
compound = "COc1cccc2c1C(=O)OC2c1cccc2ccccc12 (centres undefined)"
measured_target = "RPMI-8226"
class_name = "inactive"

[[record]]
compound = "COc1ccc(C(OCC2OC(n3cc(C)c(=O)[nH]c3=O)CC2n2cc(Cn3cc(Cl)c(=O)[nH]c3=O)nn2)(c2ccccc2)c2ccccc2)cc1 (centres undefined)"
measured_target = "RPMI-8226"
class_name = "inactive"

[[record]]
compound = "CC1CCCc2c(C#N)c(N)nc(-c3ccc(Cl)cc3)c21 (centres undefined)"
measured_target = "RPMI-8226"
class_name = "inactive"

[[record]]
compound = "N#Cc1c(Cl)c2cc([N+](=O)[O-])ccc2n2c1nc1ccccc12"
measured_target = "RPMI-8226"
class_name = "inactive"

[[record]]
compound = "Cn1c2ccccc2c(=O)c2cccc(C(=O)NC(CCCNC(=N)N)C(=O)O)c21 (centres undefined)"
measured_target = "RPMI-8226"
class_name = "inactive"

[[record]]
compound = "Cc1c2ccccc2c(C)n2c1nc1cc(Cl)c(Cl)cc12"
measured_target = "RPMI-8226"
class_name = "inactive"

[[record]]
compound = "CN1CCN(CCCBr)CC1"
measured_target = "RPMI-8226"
class_name = "inactive"

[[record]]
compound = "CC(=O)OC1C(O)C(C)OC(OC2C(OC(=O)C3CCC4C(C3)OC3(CC(OC(=O)/C=C/c5ccccc5)C(C)CO3)C43CO3)OC(C)C(O)C2OC(C)=O)C1O (centres undefined)"
measured_target = "RPMI-8226"
class_name = "active"

[[record]]
compound = "CO[C@H]1[C@@H](O)[C@@H](C)O[C@@H](O[C@H]2CC[C@@]3(C)[C@H](CC[C@@H]4[C@@H]3CC[C@]3(C)[C@@H](C5=CC(=O)OC5)[C@@H](OC(C)=O)C[C@]43O)C2)[C@@H]1O [NERITALOSIDE]"
measured_target = "RPMI-8226"
class_name = "active"


----------
// values below are GI50; system is HCT-15
ASSAY ENDPOINT: GI50 (µM)

[[record]]
compound = "COc1ccc(C2C(Cl)C(=O)N2NC(=O)Cc2ccccc2)cc1 (stereo not given)"
assay_endpoint = "GI50"
result_units = "µM"
modifier = ">"
reading = 100

[[record]]
compound = "O=C(O)CCSC(=S)Nc1cccc(F)c1"
assay_endpoint = "GI50"
result_units = "µM"
modifier = "="
reading = 27

[[record]]
compound = "C[P+](C)(C)C"
assay_endpoint = "GI50"
result_units = "µM"
modifier = ">"
reading = 100

[[record]]
compound = "COc1ccc(-c2cn3c(nc4ccccc43)c(C)n2)cc1"
assay_endpoint = "GI50"
result_units = "µM"
modifier = ">"
reading = 93.1

[[record]]
compound = "CC1Oc2c(c(=O)oc3ccccc23)[C@@]1(C)CC1C[C@H](C)C(=O)O1 (stereo not given in full)"
assay_endpoint = "GI50"
result_units = "µM"
modifier = "="
reading = 18.3

[[record]]
compound = "O=C1N2Cc3c4ccc5c3CN3C(=O)N6Cc7c(ccc(c7CN1C6(c1ccccc1)C23c1ccccc1)OCCOCCOc1cc(Br)c(Br)cc1OCCOCCO4)OCCOCCOc1cc(Br)c(Br)cc1OCCOCCO5 (stereo not given)"
assay_endpoint = "GI50"
result_units = "µM"
modifier = "="
reading = 25.4

[[record]]
compound = "Cc1cccc(N2C(=O)C3c4[nH]c5ccc(C)cc5c4C4CCC(C(C)(C)C)CC4C3C2=O)c1 (stereo not given)"
assay_endpoint = "GI50"
result_units = "µM"
modifier = "="
reading = 53.7

[[record]]
compound = "CC(=O)Nc1cc(C(=O)Nc2cc(C(=O)N3CC(CCl)c4c3cc(N)c3ccccc43)nn2C)nn1C (stereo not given)"
assay_endpoint = "GI50"
result_units = "µM"
modifier = "="
reading = 0.571

[[record]]
compound = "O=C(O)C1CCCCN1C(=O)c1ccccc1 (stereo not given)"
assay_endpoint = "GI50"
result_units = "µM"
modifier = ">"
reading = 100

[[record]]
compound = "CC(=O)CC(=O)N1CCSC1=S"
assay_endpoint = "GI50"
result_units = "µM"
modifier = ">"
reading = 10


----------
Tested on: SNB-75
Experiment: NCI tumour cell line growth inhibition, 48 h
Active and inactive are the calls of the source. Rule as the data show it: active = GI50 up to about 1.1 µM and inactive = higher.
ASSAY ENDPOINT: GI50

[[record]]
compound = "COc1ccc(-c2cc3ccccc3[nH]c2=O)cc1OC"
reading = "> 100 µM (inactive)"

[[record]]
compound = "CC(=O)CCCCn1c(=O)c2c(nc(Br)n2C)n(C)c1=O"
reading = "> 100 µM (inactive)"

[[record]]
compound = "Nc1ccn(C2OC(COP(=O)(O)OCC3OC(n4cc(F)c(=O)[nH]c4=O)CC3O)C(O)C2O)c(=O)n1 (configuration not stated)"
reading = "> 48.3 µM (inactive)"

[[record]]
compound = "N#CC1(C#N)C2CCCCC23OC(=N)C1(C#N)C(c1ccco1)O3 (configuration not stated)"
reading = "55.5 µM (inactive)"

[[record]]
compound = "CCC(=O)N1NC(=O)C(CC)(CC)C1=O"
reading = "36.8 µM (inactive)"

[[record]]
compound = "CO[C@@H]1C[C@H]2[C@@H]3CC[C@H]([C@@H](C)COC(C)=O)[C@@]3(C)CC[C@@H]2[C@@]2(C)CC[C@H]3C[C@]312"
reading = "17.9 µM (inactive)"

[[record]]
compound = "O=C1CSC2=NC3=C(COC/C3=C\\c3ccc(Br)cc3)C(c3ccc(Br)cc3)N12 (configuration not stated)"
reading = "70.5 µM (inactive)"

[[record]]
compound = "COc1ccc(C2NCCc3c2[nH]c2ccccc32)cc1 (configuration not stated)"
reading = "30.5 µM (inactive)"

[[record]]
compound = "O=S(=O)(SC1=NCCN1)c1ccc2ccccc2c1"
reading = "25.2 µM (inactive)"

[[record]]
compound = "N#C[BH2-][n+]1cn(C2CC(O)C(COP(=O)(O)OC3CC(n4ccc(N)nc4=O)OC3CO)O2)c2nc(N)[nH]c(=O)c21 (configuration not stated)"
reading = "> 100 µM (inactive)"

[[record]]
compound = "CC(=O)Nc1ccc2c(c1)nc1c3ccccc3ccn21"
reading = "71.9 µM (inactive)"

[[record]]
compound = "Cc1ccc(S(=O)(=O)n2ccn3c(=O)cc(C)nc23)cc1"
reading = "> 10 µM (inactive)"


----------
Test system: SK-MEL-5
Assay: NCI tumour cell line growth inhibition, 48 h
Activity calls are given as the source filed them. Rule as the data show it: active = GI50 up to about 1.1 µM and inactive = higher.
Classes used: yes for active, no for inactive

[[record]]
molecule = "Cc1ccc(NC(=O)CSc2nc(C)nc3c2sc(=S)n3-c2ccccc2)cc1"
measured_target = "SK-MEL-5"
class_name = "no"

[[record]]
molecule = "CN(C)CCNC(=O)c1cccc2c1C(=O)c1ccccc1C2=O"
measured_target = "SK-MEL-5"
class_name = "no"

[[record]]
molecule = "CC1=CCC2(C#N)CCC1C2=O (stereo not given)"
measured_target = "SK-MEL-5"
class_name = "no"

[[record]]
molecule = "CS/C(c1ccccc1)=[N+](\\[O-])Cc1ccccc1"
measured_target = "SK-MEL-5"
class_name = "no"

[[record]]
molecule = "CC(=O)OC1C(O)C(C)OC(OC2C(OC(=O)C3CCC4C(C3)OC3(CC(OC(=O)/C=C/c5ccccc5)C(C)CO3)C43CO3)OC(C)C(O)C2OC(C)=O)C1O (stereo not given)"
measured_target = "SK-MEL-5"
class_name = "yes"

[[record]]
molecule = "Nc1nc(N)c2ncn(Cc3c(Cl)cccc3Cl)c2n1"
measured_target = "SK-MEL-5"
class_name = "no"

[[record]]
molecule = "CCn1c(=O)c2c(=O)[nH][nH]c2c2ccccc21"
measured_target = "SK-MEL-5"
class_name = "no"

[[record]]
molecule = "NC(=S)N/N=C(/CC(=O)c1ccc([N+](=O)[O-])cc1)C(=O)Nc1ncc([N+](=O)[O-])s1"
measured_target = "SK-MEL-5"
class_name = "no"

[[record]]
molecule = "CC(=O)O[C@]12CCCCCCC1C1(O)C(O)CCC[C@H]12 (stereo not given in full)"
measured_target = "SK-MEL-5"
class_name = "no"

[[record]]
molecule = "Nc1ccn(C2OC(COP(=O)(O)OCC3OC(n4cc(F)c(=O)[nH]c4=O)CC3O)C(O)C2O)c(=O)n1 (stereo not given)"
measured_target = "SK-MEL-5"
class_name = "yes"


----------
Test system: OVCAR-8
Test: NCI tumour cell line growth inhibition, 48 h
The source made the active and inactive calls. Cut-off read from the data, not from the text of the source: active = GI50 up to about 1.1 µM and inactive = higher.
ASSAY ENDPOINT: GI50

[[record]]
compound = "COc1ccc(C2C(C#N)=C(S)N(C3OC(COC(C)=O)C(OC(C)=O)C(OC(C)=O)C3OC(C)=O)C(c3ccccc3)=C2C(C)=O)cc1 (stereo not given)"
reading = "> 100 µM (inactive)"

[[record]]
compound = "COc1ccc2c(c1)CN1C(=N2)CSC1c1cc([N+](=O)[O-])ccc1Cl (stereo not given)"
reading = "48.8 µM (inactive)"

[[record]]
compound = "COc1cc(C(C)O)c(S(=O)(=O)CC(C)O)nn1 (stereo not given)"
reading = "> 100 µM (inactive)"

[[record]]
compound = "CCn1c(-c2ccccc2)cs/c1=N\\C(P(=O)(O)O)P(=O)(O)O"
reading = "> 100 µM (inactive)"

[[record]]
compound = "C1=N\\CCOCC/N=C/c2ccccc2OCc2cccc(n2)COc2ccccc2/1"
reading = "6.38 µM (inactive)"

